All figures here come from ChEMBL document CHEMBL1157539.

tested on: HepG2; assay: GSK_TCMDC: Percent inhibition of human HepG2 cell line. Test compounds present at 10uM.; format: functional
assay-readout: Inhibition (%)
Write the number in % without appending the unit.

Here is how some compounds turned out for Inhibition.
O=C(NC1CCN(Cc2ccccc2)CC1)c1ccc(-c2nc3cc4ccccc4cc3[nH]2)s1
13
Cc1ccc(N2C(N)=NC(N)=NC2c2ccccc2)cc1.Cl (configuration not stated)
11
COc1ccc(-c2nc(NC(=O)Cc3ccc4c(c3)OCCO4)sc2C)cc1
0
COc1ccc2nccc(N3CCC(SCCNCc4ccc5c(n4)NC(=O)CO5)C3)c2n1.Cl (configuration not stated)
30

Problem: What Inhibition appears in the records for this compound with HepG2? `COc1ccc(N2CCN(CCCCNC(=O)c3ccc(NC(=O)c4ccc(Cl)cc4)cc3)CC2)c(C)c1`
Result: 42

Problem: Field: Inhibition (HepG2). Entry: `Cc1ccc(C2CCN(CCCCNC(=O)c3ccc(NC(=O)c4ccc(Cl)cc4)cc3)CC2)c(OCC(F)(F)F)c1`
Result: 32

Problem: Missing value: Inhibition, HepG2, entry `COc1ccc(CNCCc2cccs2)cc1-c1cccc(S(=O)(=O)NCCN2CCCC2)c1.O=C(O)C(F)(F)F` . Fill in?
Result: 56

Problem: # value lookup — system HepG2, readout Inhibition, item `O=C(NNC(=O)c1ccc(CN2CCC(c3nc4ccccc4[nH]3)CC2)cc1)Nc1ccc(Oc2ccccc2)cc1.O=C(O)C(F)(F)F`
Result: 0

Problem: What measured Inhibition is associated with `CCNC(=O)c1ccc2c(c1)c(C)c(C)n2Cc1ccc(F)cc1` on HepG2?
Result: 25

Problem: # returns recorded Inhibition (system: HepG2) for N[C@@H](Cc1ccc(O)cc1)C(=O)NC(c1ccccc1)c1c(O)ccc2ccccc12.O=C(O)C(F)(F)F (some centres not stated)
Result: 6

Problem: Lab note: need Inhibition with HepG2 for entry `C=C[C@H]1CN2CC[C@H]1C[C@@H]2[C@@H](O)c1ccnc2ccc(OC)cc12` , please look it up.
Result: 0

Problem: Any idea what Inhibition came out for `COc1cccc(NC(=O)COc2ccc(C(=O)Nc3nc4ccccc4[nH]3)cc2)c1` on HepG2?
Result: 19

Problem: Please provide the recorded Inhibition for `O=S(=O)(Nc1cccc(CCN2CCC(N3CCCCC3)CC2)c1)c1cccc2cccnc12` , tested on HepG2.
Result: 0

Problem: Request body: readout Inhibition, system HepG2, query `COCCN1CCC(CN(C)CC(C)(C)c2nc(-c3ccc(Cl)c(O)c3)c(-c3ccncc3)[nH]2)CC1.Cl` . Return the value.
Result: 0

Problem: For the record `COc1ccc(F)cc1-c1ccccc1CNC(=O)c1cnn(-c2ccc([N+](=O)[O-])cc2)c1C(F)(F)F` , what value of Inhibition is listed for HepG2?
Result: 0

Problem: Hi! What's the reported Inhibition for `CN1CCN(c2ccnc3cc4c(cc23)N(C(=O)Nc2ccc(-c3ccncc3)c3ccccc23)CC4)CC1.Cl` on HepG2?
Result: 10

Problem: Short answer please: Inhibition, HepG2, entry `CC(C)(C)c1ccc(NC(=O)c2ccc(CN3CCCN(Cc4cccc(F)c4)CC3)cc2)cc1.O=C(O)C(F)(F)F`
Result: 51

Problem: Inhibition of `C=CCn1c(SCC(=O)Nc2cc(C)ccc2OC)nc2sc(C)cc2c1=O` on HepG2?
Result: 6

Problem: Lab note: need Inhibition for `CCN(CC)CCCNc1cc[n+]([O-])c2cc3ccccc3cc12` on HepG2, anyone have it?
Result: 13

Problem: Checklist item: Inhibition tested on HepG2, entry `Cc1ccc(O)cc1Nc1ccnc2cc(-c3ccncc3)ccc12.Cl` , value?
Result: 16

Problem: Checklist item: Inhibition tested on HepG2, entry `Cl.O=S(=O)(c1ccc(OCc2ccc(Cl)cc2)cc1)c1cc2c(cc1O)CCN(C1CCC1)CC2` , value?
Result: 11

Problem: So what Inhibition did `COc1ccc(CN2CCCN(Cc3cccc(NC(=O)c4ccc(Cl)c(Cl)c4)c3)CC2)cc1.O=C(O)C(F)(F)F` get with HepG2?
Result: 38

Problem: Query for HepG2: what Inhibition does the record show for `Cc1cc(NC(=O)CCCN2CCN(c3cccc(Cl)c3Cl)CC2)ccc1N1CCN(C(C)C)CC1.Cl` ?
Result: 86

Problem: Recall the recorded Inhibition for CC(C)Oc1cccc(-c2ccc(C(=O)NCC3CCCN(Cc4cccc(C(F)(F)F)c4)C3)s2)c1.O=C(O)C(F)(F)F (configuration not stated) with HepG2 and state it.
Result: 10

Problem: Lab note: need Inhibition for `COC(=O)c1cccc(CNCc2cccc(-c3csc(-c4nc5ccccc5[nH]4)c3)c2)c1.O=C(O)C(F)(F)F` on HepG2, anyone have it?
Result: 0

###

tested on: HepG2; experiment: GSK_TCMDC: Percent inhibition of human HepG2 cell line. Test compounds present at 10uM.; format: functional
Inhibition of 60% or higher: fulfilled. Under 60%: not fulfilled.

Example cases with answers are listed next.
O=C(/C=C/c1ccc(Cl)c(Cl)c1)NCCCCCN1CCC(c2cn[nH]c2-c2ccccc2)CC1
not fulfilled
CC(NC(=O)c1cc(-c2ccccc2)nc2c1cnn2C(C)C)C1CC1 (stereo not given)
not fulfilled
Cc1cc(OCCCN2CCC(NC(=O)c3ccc(Br)cc3)C2)c2ccccc2n1 (stereo not given)
not fulfilled

Would you kindly look at the next entry?
Problem: Entry `COc1c(C2CCN(CCCCNC(=O)c3ccc(-c4ccc(Cl)cc4)cn3)CC2)ccc2c1CCCC2` : is its Inhibition no less than 60%?
Result: fulfilled

###

Here, each record is paired with measured Inhibition data.
system: Plasmodium falciparum; experiment: GSK_TCMDC: Inhibition of Plasmodium falciparum 3D7 in whole red blood cells, using parasite LDH activity as an index of growth. Test compounds present at 2uM; type: functional
Value expressed in %; do not type the unit.

N#Cc1cccc(C(=O)Nc2ccc(-c3cccc(CN4CCCC4)c3)cc2)c1.O=C(O)C(F)(F)F
100
N#CCSc1nnc(-c2ccccc2)c2ccccc12
84
Cl.ON=C1CCc2cc(-c3nc(-c4ccc(OCCN5CCCCC5)cc4)[nH]c3-c3ccncc3)ccc21
99
Br.CC1(C)NC(N)=NC(=N)N1OCCCc1ccc(Cl)cc1Cl
95
Cc1cccc(C(=O)N2CCN(Cc3cccc(NC(=O)c4cccs4)c3)CC2)c1.O=C(O)C(F)(F)F
95

Problem: I'd like to know its Inhibition. The compound in question is `COc1ccc(CN(C)Cc2ccc(NC(=O)c3cccc4c(=O)c5cccc(C)c5[nH]c34)cc2)cc1OC`
Result: 92

Problem: Returns the measured Inhibition for the input compound. Input: `Br.CC1(C)N=C(N)N=C(N)N1OCc1cccc2c1ccc1ccccc12`
Result: 95

Problem: I have this compound here, `Cc1cc(C(=O)OCC(=O)Nc2c(C)n(C)n(-c3ccccc3)c2=O)c(C)n1-c1ccc(F)cc1` , and I need its recorded Inhibition.
Result: 100

Problem: Fill in: Inhibition of `O=C(NC1CCN(Cc2ccccc2)CC1)c1cccc(-c2nc3ccc(Cl)cc3[nH]2)c1` is ___
Result: 98

Problem: Sample `CCN(CC)Cc1cccc(-c2cc3c(-c4ccc(C(=O)O)c(C(C)C)c4)ccnc3[nH]2)c1OC.O=C(O)C(F)(F)F` — what was its Inhibition?
Result: 99

Problem: Consider the compound shown here: `COc1ccc(-c2c(-c3ccc(OCc4ccccc4)cc3O)n[nH]c2C(F)(F)F)cc1` What is its recorded Inhibition?
Result: 93

Problem: Fill in the blank: the reported Inhibition of `COC(=O)c1cccc(CNCc2cccc(-c3csc(-c4nc5ccccc5[nH]4)c3)c2)c1.O=C(O)C(F)(F)F` is ____.
Result: 100

Problem: Endpoint output: Inhibition of `CC(C)(C)c1ccc(CN(C[C@@H](O)CNS(=O)(=O)c2cc(Cl)cc(Cl)c2)C(C)(C)C)cc1.Cl` . Value?
Result: 98

Problem: What measured Inhibition goes with `CCc1cn2c3c(cc(C(=O)N[C@@H](Cc4ccccc4)[C@H](O)CNC(C)(C)c4cccc(OC)c4)cc13)N(C)S(=O)(=O)C2.O=CO` ?
Result: 98

Problem: I have this compound here, `COc1ccc(F)cc1-c1ccc(C(=O)N2CCCN(c3ccc(C(F)(F)F)cn3)CC2)cc1` , and I need its recorded Inhibition.
Result: 100

###

test system: Plasmodium falciparum; assay: GSK_TCMDC: Inhibition of Plasmodium falciparum 3D7 in whole red blood cells, using parasite LDH activity as an index of growth. Test compounds present at 2uM; format: functional
Measured Inhibition, listed per entry.
Just the number in %, nothing appended.

Solved entries:
COc1cc(Nc2nccc(N3CCC(NC(=O)c4cccc(NC(C)=O)c4)C3)n2)cc(OC)c1OC (centres undefined)
98
Fc1ccccc1-c1cc(Nc2ccncc2)nc(-c2cccnc2)n1
100
COc1cc2nc(NCC3CCCCC3)nc(NCc3ccccc3)c2cc1OC
100
O=c1cc(-c2ccc3ccccc3c2)[nH]c2ccccc12
81
CCn1cc(CN2CCCC(C(=O)Nc3ccc(-c4nc5ccccc5[nH]4)cc3)C2)c(C)n1 (centres undefined)
100
COc1cc(-c2cc3cc(Cl)c(Cl)cc3[nH]2)ccc1C(=O)NC1CCN(Cc2ccccc2)CC1.O=C(O)C(F)(F)F
100

Problem: Quick check: Inhibition of O=C(/C=C/c1ccc(Cl)cc1)NCCCCCN1CCCC(C(=O)Nc2cccc(Cl)c2)C1 (centres undefined) ?
Result: 96

Problem: # input molecule: `Cn1nc(C(F)(F)F)c(-c2ccc(Br)cc2)c1NC(=O)Cc1ccccc1F` ; wanted: its Inhibition
Result: 100

Problem: Record request: Inhibition value, item `CC1(C)C(=O)Nc2ccccc2N1C(=O)CN1CCN(c2ccccc2O)CC1`
Result: 92

Problem: // returns reported Inhibition for input `Br.CCOC(=O)c1cc(Cl)cc(Cl)c1OCCCON1C(=N)N=C(N)NC1(C)C`
Result: 93

Problem: Recorded Inhibition of `CCc1sc(N2CCN(C)CC2)nc1C(=O)Nc1ccc(F)cc1C(F)(F)F.O=C(O)C(F)(F)F` , please.
Result: 100

Problem: Please look up its Inhibition: `O=C(NC1CCN(Cc2ccccc2)CC1)c1ccc(-c2nc3cc4ccccc4cc3[nH]2)s1`
Result: 99

Problem: Which Inhibition reading was recorded for the molecule `Cc1ccc(CNC(=O)c2ccc(CN3CCCN(Cc4ccsc4)CC3)cc2)cc1.O=C(O)C(F)(F)F` ?
Result: 93

Problem: Returns the measured Inhibition for the input molecule. Input: `O=C(NCc1ccc(Cl)cc1)c1ccc(CN2CCCN(CC3CCCCC3)CC2)cc1.O=C(O)C(F)(F)F`
Result: 84

Problem: Requested field: Inhibition. Item: `N=C(N)c1nc2ccccc2s1`
Result: 87

Problem: Which Inhibition is reported for this molecule? `Cl.Clc1ccc(OCc2ccccc2)c(Cc2ccc(-c3nc4cnccc4[nH]3)o2)c1`
Result: 99

Problem: # lookup: Inhibition of `CC(=O)Nc1ncc(C(=O)Nc2cccc(-c3ccc(-c4nc5cc(C(F)(F)F)ccc5[nH]4)s3)c2)s1`
Result: 100

Problem: Recorded Inhibition for CCNc1cc(C(=O)N[C@@H](Cc2ccccc2)[C@H](O)CNC2CCC(C)(C)C2)cc(N2CCCCS2(=O)=O)c1.Cl (some centres undefined) , please?
Result: 96

Problem: Using the record for `Cc1cc(N[C@@H](Cc2ccccc2)C(=O)NCc2cccc(F)c2)nc(NCCc2ccccc2)n1.O=C(O)C(F)(F)F` , report its Inhibition.
Result: 100

Problem: Give the measured Inhibition of `O=C(Nc1ccc(Cl)cc1)Nc1cccc(-c2cccc(-c3nc4cc(F)ccc4[nH]3)c2)c1` .
Result: 100

Problem: Entry under review: `Cc1c(O)cccc1Nc1ccnc2ccc(C(F)(F)F)cc12.Cl` . Reported Inhibition?
Result: 96

Problem: Consider the molecule `CN(C)c1ccc2nc(N)nc(N)c2c1Cl.Cl` and give its measured Inhibition.
Result: 98

Problem: Given `C(=Cc1ccccc1)C=NN=c1cc[nH]c2ccccc12` , state its recorded Inhibition.
Result: 100

Problem: GET /values?readout=Inhibition&item= `COc1cc(C(=O)NC2CC(C)(C)N(C)C(C)(C)C2)ccc1-c1nc2cc(Cl)c(Cl)cc2[nH]1`
Result: 100

Problem: // lookup Inhibition for `Cc1cc(N(C)C)nc(Nc2ccc(NS(=O)(=O)c3ccccc3)cc2)n1`
Result: 92

Problem: # get_value(readout='Inhibition', item= `CCn1c(C)c(C)c2cc(C(=O)Nc3ccon3)ccc21` )
Result: 95
